Data origin, for the record: patent US20250368745A1

Target: T1, human IL-18BP (human, UniProt O95998 31-194)
T1 construct: UniProt printed as 095998; also called hIL-18BP
T1 sequence: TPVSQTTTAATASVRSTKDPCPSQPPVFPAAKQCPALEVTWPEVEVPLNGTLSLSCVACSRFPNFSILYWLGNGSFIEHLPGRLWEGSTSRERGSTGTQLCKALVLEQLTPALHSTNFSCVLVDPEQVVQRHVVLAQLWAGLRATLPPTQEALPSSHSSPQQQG
Assay: BLI, apparent KD
Endpoint label: Kd
// return the numeric value with its unit appended

Recorded Kd of SA301a HC-Y53H (antibody, name in Kabat numbering, V domains shown, IgG1 kappa) VH: QVQLQESGPGLVKPSQTLSLTCTVSGYSITSDYNSHWIRQPPGKGLEWIGYIHHSGSTNYNPSLKSRVTISRDTSKNQFSLKLSSVTAADTAVYYCARNYGSIYVNYFDYWGQGTLVTVSS VL: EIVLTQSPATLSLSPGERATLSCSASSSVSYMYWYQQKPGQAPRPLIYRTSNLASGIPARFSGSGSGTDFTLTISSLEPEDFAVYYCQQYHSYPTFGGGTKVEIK , please.
2.41 nM

Now consider SA301a HC-I51L (antibody, name in Kabat numbering, V domains shown, IgG1 kappa) VH: QVQLQESGPGLVKPSQTLSLTCTVSGYSITSDYNSHWIRQPPGKGLEWIGYLHYSGSTNYNPSLKSRVTISRDTSKNQFSLKLSSVTAADTAVYYCARNYGSIYVNYFDYWGQGTLVTVSS VL: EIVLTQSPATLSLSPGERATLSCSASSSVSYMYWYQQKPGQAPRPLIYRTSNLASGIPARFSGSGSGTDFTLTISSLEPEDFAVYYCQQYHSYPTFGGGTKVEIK .
0.69 nM
